Below, each entry is listed alongside its reported EC50.
- tested_on: T1, gp70 C.1086 V1/V2 (HIV-1 V1V2 on murine leukemia virus gp70)
- T1 construct: also called C.gp70 1086C V1V2; C.1086gp70V1V2
- T1 chain: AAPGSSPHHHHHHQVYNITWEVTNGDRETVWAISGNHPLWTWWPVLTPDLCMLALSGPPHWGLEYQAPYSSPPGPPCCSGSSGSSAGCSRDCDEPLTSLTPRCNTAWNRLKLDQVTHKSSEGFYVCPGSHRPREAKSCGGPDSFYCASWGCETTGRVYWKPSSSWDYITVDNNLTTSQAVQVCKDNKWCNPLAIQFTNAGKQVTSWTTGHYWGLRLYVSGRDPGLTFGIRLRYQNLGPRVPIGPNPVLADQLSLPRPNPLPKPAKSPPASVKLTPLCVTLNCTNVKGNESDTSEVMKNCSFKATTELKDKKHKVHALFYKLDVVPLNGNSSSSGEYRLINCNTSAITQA
- assay_details: ELISA
Kindly provide the numeric value in nM only, without the unit symbol.

binder	EC50, nM
697D (antibody, V domains shown, also called mAb 697D; V2 conformational mAb 697D) VH: QVQLVQSGAEVKKPGSSVKVSCKASGGNFNTYTISWVRQAPGQGLEWMGRIIPIFGIVNPAQKFPGRVTINVDKSTNTAYMELSSLRSEDTAVYYCATSGVGLHFGYFDYWGQGTQVTVSS VL: QSVLTQPPSVSGAPGQRVTISCTGSSSNIGAHYDVHWYQQLPGTAPKLLIYGNSNRPSGVPDRFSGSKSGTSASLAITGLQAEDEADYYCQSYDSSLSGYVFGTGTKVTVL	0.067

I would be grateful if you could share the reported EC50 for CH59 reverted unmutated ancestor antibody (antibody, V domains shown, also called CH59 RUA; CH59_RUA) VH: EVQLVESGGGLVQPGRSLRLSCAASGFTFDDYAMHWVRQAPGKGLEWVSGISWNSGSIGYADSVKGRFTISRDNAKNSLYLQMNSLRAEDTALYYCAKDSPRGELPFDYWGQGTLVTVSS VL: SYELTQPPSVSVSPGQTARITCSGDALPKKYAYWYQQKSGQAPVLVIYEDSKRPSGIPERFSGSSSGTMATLTISGAQVEDEADYYCYSTDSSGNHRVFGGGTKLTVL .
11.3

CH59 (antibody, V domains shown, also called mAb CH59) VH: EVQLVESGGGLVQPGRSLRLSCAASGFTFDDGAMHWVRQAPGKGLEWVSGISWNSNIIAYADSVKGRFTISRDNAKNSLYLEMNSLRVEDTALYYCAKDSPRGELPLNYWGQGTLVTVSS VL: SYELTQPPSVSVSPGQTARITCSGDALPKNYAYWYQQKSGQAPVLVIYEDSKRPSGIPERFSGSSSGTMATLTISGAQVEDEADYYCYSTDSSGNHRVFGGGTKLTVL ?
0.067
